- STUDY TARGET: E3 ubiquitin-protein ligase UHRF1 (Homo sapiens) (UniProt Q96T88)
- Sequence (Q96T88 whole entry, looked up, the tested form may be a part): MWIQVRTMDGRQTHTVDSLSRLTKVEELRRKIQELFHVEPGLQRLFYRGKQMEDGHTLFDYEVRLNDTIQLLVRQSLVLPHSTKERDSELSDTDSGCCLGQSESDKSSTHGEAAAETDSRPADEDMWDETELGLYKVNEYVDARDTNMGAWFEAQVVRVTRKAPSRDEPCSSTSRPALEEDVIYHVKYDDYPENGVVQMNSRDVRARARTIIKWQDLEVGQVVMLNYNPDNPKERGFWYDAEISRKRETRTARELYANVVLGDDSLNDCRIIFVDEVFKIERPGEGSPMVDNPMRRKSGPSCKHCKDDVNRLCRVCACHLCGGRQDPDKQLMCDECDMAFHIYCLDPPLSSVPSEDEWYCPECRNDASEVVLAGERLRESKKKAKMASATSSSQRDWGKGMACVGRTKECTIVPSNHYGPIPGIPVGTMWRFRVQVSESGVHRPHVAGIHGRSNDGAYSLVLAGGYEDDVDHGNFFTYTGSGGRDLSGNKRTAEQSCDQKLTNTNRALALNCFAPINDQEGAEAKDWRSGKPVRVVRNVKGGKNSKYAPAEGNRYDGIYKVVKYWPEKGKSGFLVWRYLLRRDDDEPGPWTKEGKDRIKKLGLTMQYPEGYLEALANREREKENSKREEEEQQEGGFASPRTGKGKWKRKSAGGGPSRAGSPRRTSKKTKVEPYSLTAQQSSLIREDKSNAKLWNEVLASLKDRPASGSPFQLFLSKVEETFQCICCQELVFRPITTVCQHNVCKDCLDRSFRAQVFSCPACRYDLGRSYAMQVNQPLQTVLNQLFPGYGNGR
- TEST DESCRIPTION: blockers of UHRF1 binding to methyl-oligo – biochemical, TR-FRET, human UHRF1, single concentration, counter-screen for MBD2 inhibitor project, primary screen (AID 687016);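 note: UHRF1 SRA domain binding a hemimethylated CpG hairpin DNA probe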
- APPLIED CONDITIONS: UHRF1 binding to methylated oligo, at 4.4 µM
Out of some 370,000 compounds screened, about 2,800 (0.76%) were called active. Cut-off read from the data, not from the text of the source: active = inhibition above about 21%; inactive = the rest. The list comes from a sample in which actives are over-represented; it also holds close analogues and randomly drawn compounds.
Labels: YES for active, NO for inactive

[
  {
    "COMPOUND": "COc1ccc(C2Nc3ccccc3C(=O)N2Cc2cccs2)cc1COc1c(C)cccc1C (stereo unspecified)",
    "ANSWER LABEL": "NO"
  },
  {
    "COMPOUND": "COc1ccc(C(C)C)cc1-c1ccc2nncn2c1",
    "ANSWER LABEL": "YES"
  },
  {
    "COMPOUND": "CC(NCc1ccco1)C(=O)N1CCCCC1 (stereo unspecified)",
    "ANSWER LABEL": "NO"
  },
  {
    "COMPOUND": "C=CCN1C(=O)[C@H](CC(=O)N2CCN(C(=O)OCC)CC2)[C@@]2(C(=O)OCC)CCCC=C12",
    "ANSWER LABEL": "NO"
  },
  {
    "COMPOUND": "COC(=O)[C@]12C[C@H](CC(=O)NCCc3ccccc3OC)C(=O)N(Cc3ccco3)C1=C[C@H](C(C)C)O[C@@H]2C1CC1",
    "ANSWER LABEL": "NO"
  },
  {
    "COMPOUND": "Cc1nn(-c2ccccc2)c(-n2cccc2)c1C(=O)O",
    "ANSWER LABEL": "NO"
  },
  {
    "COMPOUND": "COc1ccc(C(=O)N2CCC(C(=O)Nc3ccc(C)cc3)CC2)cc1",
    "ANSWER LABEL": "YES"
  },
  {
    "COMPOUND": "O=C(Nc1ccccc1C(=O)N1CCCCC1)c1ccco1",
    "ANSWER LABEL": "NO"
  },
  {
    "COMPOUND": "COc1ccc(N2CCN(C(=O)c3cccs3)CC2)cc1",
    "ANSWER LABEL": "NO"
  },
  {
    "COMPOUND": "O=C(COc1ccccc1)Nc1ccc(N2CCN(C(=O)c3cccs3)CC2)cc1",
    "ANSWER LABEL": "YES"
  },
  {
    "COMPOUND": "Cc1c(C(C)c2ccccc2O)[nH]c2ccccc12 (stereo unspecified)",
    "ANSWER LABEL": "NO"
  },
  {
    "COMPOUND": "COc1ccc(S(=O)(=O)N2CCc3ccccc32)cc1C(=O)Nc1cc(S(C)(=O)=O)ccc1Cl",
    "ANSWER LABEL": "YES"
  },
  {
    "COMPOUND": "COc1ccc(CCNC(=O)CSc2nc3c([nH]2)c(=O)n(C)c(=O)n3C)cc1",
    "ANSWER LABEL": "NO"
  },
  {
    "COMPOUND": "CCOC(=O)c1csc(NC(=O)C2CCCN(S(=O)(=O)c3ccc(Cl)s3)C2)n1 (stereo unspecified)",
    "ANSWER LABEL": "NO"
  },
  {
    "COMPOUND": "CCCC[C@H](C(=O)N(CC)c1ccccc1)[C@@H](O)c1ccc2ccccc2c1",
    "ANSWER LABEL": "NO"
  },
  {
    "COMPOUND": "COc1ccc(Cn2cc(COC(=O)N(C)Cc3ccccc3)nn2)cc1",
    "ANSWER LABEL": "NO"
  },
  {
    "COMPOUND": "Oc1ccc(/C=C/c2c(F)cccc2F)c2cccnc12",
    "ANSWER LABEL": "NO"
  },
  {
    "COMPOUND": "COc1ccc(C)c(Cn2c(-c3nonc3N)nc3ccccc32)c1",
    "ANSWER LABEL": "NO"
  },
  {
    "COMPOUND": "CCOC(=O)[C@]12CCCCC/C=C\\1N(Cc1ccc(OC)cc1)C(=O)[C@H]2CC(=O)N1CCOCC1",
    "ANSWER LABEL": "NO"
  },
  {
    "COMPOUND": "COC(=O)c1ccc2nc(-c3cccc(Br)c3)c(Cc3ccc(OC)cc3C)n2c1",
    "ANSWER LABEL": "YES"
  },
  {
    "COMPOUND": "O=S(=O)(Cc1ccccc1)c1nc2ccccc2n1Cc1ccccn1",
    "ANSWER LABEL": "NO"
  },
  {
    "COMPOUND": "COc1ccc(-n2c(COc3ccc(C)cc3)nnc2SCC(=O)Nc2ccc(Oc3ccccc3)cc2)cc1",
    "ANSWER LABEL": "NO"
  },
  {
    "COMPOUND": "COC(=O)[C@]12C[C@H](CC(=O)NCc3ccccc3)C(=O)N(CCC3=CCCCC3)C1=C[C@H](C(C)C)O[C@@H]2C1CC1",
    "ANSWER LABEL": "NO"
  },
  {
    "COMPOUND": "O=C(NCC1COc2ccccc2O1)c1ccc(NC(=O)c2cc(F)ccc2F)cc1 (stereo unspecified)",
    "ANSWER LABEL": "NO"
  },
  {
    "COMPOUND": "COC(=O)c1cccc(Cn2ccc3ccc(-c4ccc5ccn(C(=O)C6CCCCC6)c5c4)cc32)c1",
    "ANSWER LABEL": "NO"
  },
  {
    "COMPOUND": "Cc1nn(-c2ccccc2)c(Cl)c1/C=N/NC(=O)c1nn(C)cc1[N+](=O)[O-]",
    "ANSWER LABEL": "YES"
  },
  {
    "COMPOUND": "O=C(Nc1nc(-c2ccco2)c(-c2ccco2)s1)c1ccco1",
    "ANSWER LABEL": "YES"
  },
  {
    "COMPOUND": "Cc1cc(=O)[nH]c(SCC(=O)Nc2ccc(Cl)cc2C)n1",
    "ANSWER LABEL": "NO"
  },
  {
    "COMPOUND": "CCOc1ccc(-n2c(SCC(=O)Nc3cc(C)c(NC(=O)c4ccccc4)cc3OC)nnc2-c2cccc(Cl)c2)cc1",
    "ANSWER LABEL": "NO"
  },
  {
    "COMPOUND": "COc1ccc(N2CCN(CCNS(=O)(=O)c3ccc([N+](=O)[O-])cc3)CC2)cc1",
    "ANSWER LABEL": "NO"
  },
  {
    "COMPOUND": "COc1cccc(N2CCN(CC(=O)N(C)Cc3ccc(F)cc3)CC2)c1",
    "ANSWER LABEL": "NO"
  }
]
